Tested on: Iron-induced Lipid Peroxidation in Rat Brain Homogenates
Experiment: Assay of lipid peroxidation (TBA method)
Type: biochemical, Wistar rats
Settings: 0.5 mM; Table 2; Mean ± S.E., n = 4
Counter-ions that a name gives are not always drawn.
Label 1 when Inhibition % (0.5 mM) < 30%; otherwise -1.

API: query returns whether the compound falls strictly under 30% in Inhibition % (0.5 mM). Query: Cc1cccc(NC2c3cccc(Cl)c3C(=O)c3cccc(Cl)c32)c1 (stereo not drawn) -1

API: query returns whether the compound falls strictly under 30% in Inhibition % (0.5 mM). Query: CCN(CC)C1c2cccc(Cl)c2C(=O)c2cccc(Cl)c21 (stereo not drawn) 1

API: query returns whether the compound falls strictly under 30% in Inhibition % (0.5 mM). Query: CCCCOC1c2cccc(Cl)c2C(=O)c2cccc(Cl)c21 (stereo not drawn) -1

API: query returns whether the compound falls strictly under 30% in Inhibition % (0.5 mM). Query: O=C1O[C@H]([C@@H](O)CO)C(O)=C1O [ascorbic acid, reference compound] -1

API: query returns whether the compound falls strictly under 30% in Inhibition % (0.5 mM). Query: CCOC1c2cccc(Cl)c2C(=O)c2cccc(Cl)c21 (stereo not drawn) 1

API: query returns whether the compound falls strictly under 30% in Inhibition % (0.5 mM). Query: COC1c2cccc(Cl)c2C(=O)c2cccc(Cl)c21 (stereo not drawn) 1

API: query returns whether the compound falls strictly under 30% in Inhibition % (0.5 mM). Query: Cc1ccccc1NC1c2cccc(Cl)c2C(=O)c2cccc(Cl)c21 (stereo not drawn) -1

API: query returns whether the compound falls strictly under 30% in Inhibition % (0.5 mM). Query: Cc1c(C)c2c(c(C)c1O)CC[C@@](C)(CCC[C@H](C)CCC[C@H](C)CCCC(C)C)O2 [(+)-α-tocopherol, reference compound] -1

API: query returns whether the compound falls strictly under 30% in Inhibition % (0.5 mM). Query: O=C1c2c(O)ccc(O)c2C(=O)c2c(NCCNCCO)ccc(NCCNCCO)c21 [mitoxantrone-HCl, reference compound] -1
